Every entry's value here was drawn from ChEMBL document CHEMBL4689842.

Test system: U2OS
Assay: Multiplex assay against U2OS
Assay type: toxicity, cell-based
Settings: human, 24 h, 10 µM, compound concentration 10 uM, replicate 2
Let's look at some molecules and their measured Population Apoptotic (%).
Output spec: scalar in %, unitless text.

Worked set:
- molecule: "CC[C@H](C)C(=O)O[C@H]1C[C@@H](C)C=C2C=C[C@H](C)[C@H](CC[C@@H]3C[C@@H](O)CC(=O)O3)[C@H]21 [LOVASTATIN]"
  target_or_test_system: "U2OS"
  measure: "Population Apoptotic (%)"
  measured_number: 28
- molecule: "O=C(NCCN1CCOCC1)c1ccc2c(c1)C(=O)c1ccc(Nc3ccc(F)c(NC(=O)c4ccccc4)c3)cc1CC2 [FS-694]"
  target_or_test_system: "U2OS"
  measure: "Population Apoptotic (%)"
  measured_number: 50
- molecule: "Cc1nc(Nc2n[nH]c3c2CN(C(=O)N[C@H](CN(C)C)c2ccccc2)C3(C)C)c2sccc2n1 [PF-03758309]"
  target_or_test_system: "U2OS"
  measure: "Population Apoptotic (%)"
  measured_number: 85
- molecule: "CN1CCN(c2ccc(OC(F)(F)F)c(Nc3ncc4c(n3)-c3c(c(C(N)=O)nn3CCO)CC4)c2)CC1 [ONVANSERTIB]"
  target_or_test_system: "U2OS"
  measure: "Population Apoptotic (%)"
  measured_number: 40
- molecule: "c1cn2cc(-c3ccc4cn[nH]c4c3)nc(Nc3ccc(N4CCOCC4)cc3)c2n1 [ENTOSPLETINIB]"
  target_or_test_system: "U2OS"
  measure: "Population Apoptotic (%)"
  measured_number: 89

query: For the molecule shown here, `COc1cc(-n2cnc3cc(-c4ccc(Cl)cc4)sc3c2=O)ccc1OCCN1CCCC1` , give the reported Population Apoptotic (%).
result: 47

query: For the molecule shown here, `OC1(c2ccc(Cl)cc2)CCN(Cc2c[nH]c3ccccc23)CC1` , give the reported Population Apoptotic (%).
result: 66

---

Test system: U2OS
Test: Multiplex assay against U2OS
Assay type: toxicity, cell-based
Details: human, 48 h, 1 µM, compound concentration 1 uM, replicate 1
Let's look at some compounds and their measured Population Apoptotic (%).
Output spec: scalar in %, unitless text.

- compound: "CC(C)NCC(O)COc1ccc(CCOCC2CC2)cc1.Cl (configuration not stated) [BETAXOLOL HYDROCHLORIDE]"
  Population Apoptotic (%): 25

query: For the compound shown here, CN(C)C(=O)N[C@H]1CC[C@H](CCN2CCN(c3cccc(Cl)c3Cl)CC2)CC1.Cl [CARIPRAZINE HYDROCHLORIDE] , give the reported Population Apoptotic (%).
result: 27

query: For the compound shown here, COc1cccc([C@@H](C)NCCCc2ccccc2Cl)c1.Cl [TECALCET HYDROCHLORIDE] , give the reported Population Apoptotic (%).
result: 83

query: For the compound shown here, CN1CCC[C@@H]1CCO[C@](C)(c1ccccc1)c1ccc(Cl)cc1.O=C(O)/C=C/C(=O)O [CLEMASTINE FUMARATE] , give the reported Population Apoptotic (%).
result: 38

query: For the compound shown here, Cc1c(-c2ccc(O)cc2)n(Cc2ccc(OCCN3CCCCCC3)cc2)c2ccc(O)cc12 [BAZEDOXIFENE] , give the reported Population Apoptotic (%).
result: 53

query: For the compound shown here, `Cn1cc(-c2[nH]c3cc(NC(=O)[C@H](N)C4CCCCC4)cc4c3c2C=NNC4=O)cn1` , give the reported Population Apoptotic (%).
result: 45

query: For the compound shown here, `COc1cc(-n2cnc3cc(-c4ccc(Cl)cc4)sc3c2=O)ccc1OCCN1CCCC1` , give the reported Population Apoptotic (%).
result: 59

query: For the compound shown here, `C=CC(=O)Nc1cccc(C(=O)Nc2ccc(Nc3cc(-c4[nH]c(SC)nc4C)ccn3)cc2)c1` , give the reported Population Apoptotic (%).
result: 37
